Could you please report measured Fold change to WT CD80 for the items listed next?
assayed_target: PD-L1 (human)
Sequence (chain, as listed by the source): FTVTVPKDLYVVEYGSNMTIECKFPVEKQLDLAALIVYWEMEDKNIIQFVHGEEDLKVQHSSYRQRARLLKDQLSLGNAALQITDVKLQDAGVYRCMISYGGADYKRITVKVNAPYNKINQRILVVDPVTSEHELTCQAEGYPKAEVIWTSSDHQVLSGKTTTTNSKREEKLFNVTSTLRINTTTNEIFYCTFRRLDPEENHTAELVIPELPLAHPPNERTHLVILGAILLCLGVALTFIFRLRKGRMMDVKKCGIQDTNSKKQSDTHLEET
assay_notes: flow cytometry, CHO cells expressing PD-L1
Use fold as the unit, but write only the number.

Q: Note Fold change to WT CD80 for the binder shown: variant CD80 Q33L/E35D/M47I/N48D/A71G (Fc fusion) VIHVTKEVKEVATLSCGHNVSVEELAQTRIYWLKDKKMVLTMMSGDIDIWPEYKNRTIFDITNNLSIVILGLRPSDEGTYECVVLKYEKDAFKREHLAEVT
A: 2.62

Q: Note Fold change to WT CD80 for the binder shown: variant CD80 E35D/L85Q/K93T/E95V/L97Q (Fc fusion) VIHVTKEVKEVATLSCGHNVSVEELAQTRIYWQKDKKMVLTMMSGDMNIWPEYKNRTIFDITNNLSIVILALRPSDEGTYECVVQKYEKDAFTRVHQAEVT
A: 1.67

Q: Note Fold change to WT CD80 for the binder shown: variant CD80 E35D/M47I/L85Q/D90G (Fc fusion) VIHVTKEVKEVATLSCGHNVSVEELAQTRIYWQKDKKMVLTMMSGDINIWPEYKNRTIFDITNNLSIVILALRPSDEGTYECVVQKYEKGAFKREHLAEVT
A: 3.01

Q: Note Fold change to WT CD80 for the binder shown: variant CD80 R29H/E35D/M43V/M47I/I49V (Fc fusion) VIHVTKEVKEVATLSCGHNVSVEELAQTHIYWQKDKKMVLTMVSGDINVWPEYKNRTIFDITNNLSIVILALRPSDEGTYECVVLKYEKDAFKREHLAEVT
A: 0.13
